# System: SF-268 CNS
# assay notes: NCI-60 one-dose screen, 48 h
# conditions: 10 µM unless noted
Compounds without any hit were thinned out: in the full panel of roughly 83,000, 20% have a hit. The source made the active and inactive calls. How the source made its calls: active means growth percent below 10; inactive means the rest.
# valid calls are Yes for active, No for inactive; nothing else

compound | cat
CCN(CC)CC(O)CNc1ccc(NCC2CO2)c2c1C(=O)c1ccccc1C2=O (centres undefined) | Yes
CN(C)c1ccc(/C=C/c2sc3ccc4ccccc4c3[n+]2C)cc1 | Yes
CC(=O)Nc1ccc(C(=O)CCl)cc1 | No

**Query** Recorded call for CC1CC(C)(C)OB(OC(C)CC(C)(C)OB2OC(C)CC(C)(C)O2)O1 (centres undefined) ?
**Result** No

**Query** Lab log entry: Oc1ccc(Br)cc1Sc1cc(Br)ccc1O — outcome as called in the assay?
**Result** No

**Query** Kindly provide the recorded test outcome for the following compound: Oc1ccc(Cl)cc1C(c1cc(Cl)ccc1O)C(Cl)(Cl)Cl
**Result** No

**Query** State the result this test recorded for CCCCCCCCCCCCNCCCc1ccccc1 .
**Result** No

###

Here, each record is paired with measured growth data.
# Test system: NCI-H322M lung
# assay notes: NCI-60 one-dose screen, 48 h (100 = growth as untreated, 0 = no growth, -100 = all killed)
# conditions: 10 µM unless noted
This is part of a sample that, as a whole, favours compounds with a hit. Of some 83,000 tested, about 20% had one in any assay.
The answer is to be given in %; state only the numeric part.

Record excerpt, results attached:
compound | growth (%)
CCCCC(CCc1ccc([N+](=O)[O-])cc1)(C(C)=O)C(=O)OCC (stereo unspecified) | 108
NC(=S)Nc1ccc2c(c1)Cc1ccccc1-2 | 89.2
OC(Cc1cc(CC(O)(C(F)(F)F)C(F)(F)F)nc(CC(O)(C(F)(F)F)C(F)(F)F)c1)(C(F)(F)F)C(F)(F)F | 13.3
CC(C)c1ccc(C(=O)OC2CCCC2)cc1 | 99.2
C/C(=N\NC(=S)N1CC2CCC(CC2)C1)c1ccccn1 | 4.2
O=Nc1ccc2ccccc2c1O | 103
O=C(CBr)c1ccc(OC(=O)c2ccccc2)cc1 | 134
O=C(c1ccccc1)c1ccc(O)c2ncccc12 | 44.6

**Query** Data request, read-out growth, for CC1(C)OCC(COC(c2ccccc2)(c2ccccc2)c2ccccc2)O1 (stereo unspecified)
**Result** 92.2

**Query** Quick one: growth of CC/C(=C(/CC)c1ccc(O)cc1)c1ccc(O)cc1 ?
**Result** 77.6

**Query** Reported growth, compound Nc1nc2ncc(CNc3ccc(C(=O)NC(CCC(=O)NC(CCC(=O)NC(CCC(=O)NC(CCC(=O)NC(CCC(=O)O)C(=O)O)C(=O)O)C(=O)O)C(=O)O)C(=O)O)cc3)nc2c(=O)[nH]1 (stereo unspecified) : ____
**Result** 97.5

**Query** # growth lookup, item CN(C)CC(C)(CN(C)C)C(=O)/C=C/c1c(Cl)cccc1Cl
**Result** 70.6

**Query** Which growth value belongs to CC(C)N=C(N)/N=C(\N)Nc1ccc2ccc3ccccc3c2c1 ?
**Result** -89.9

**Query** Reported growth for CN1CCC(c2ccccc2)(c2ccccc2)C(=O)C1 : what is it?
**Result** 87.6

**Query** Item CN(C)c1ccc2cc3c(cc2c1)Oc1ccccc1N3.[Cl][Zn][Cl] has what recorded growth?
**Result** 84.7

**Query** Find the recorded growth belonging to CN(C)c1ccc(/C=C/c2cc[n+](C)c(/C=C/c3ccc(N(C)C)cc3)c2)cc1 and report it.
**Result** -9.9

**Query** Request the reported growth associated with COc1cc(-c2ccc(-[n+]3nc(-c4ccc([N+](=O)[O-])cc4)nn3-c3ccc([N+](=O)[O-])cc3)c(OC)c2)ccc1-[n+]1nc(-c2ccc([N+](=O)[O-])cc2)nn1-c1ccc([N+](=O)[O-])cc1
**Result** 44.3

###

molecules and their reported growth
# Tested on: NCI-H460 lung
# assay notes: NCI-60 one-dose screen, 48 h (100 = growth as untreated, 0 = no growth, -100 = all killed)
# conditions: 10 µM unless noted
# Protocol: Growth inhibition of the NCI-H460 human Non-Small Cell Lung tumor cell line is measured as a screen for anti-cancer activity. Cells are grown in 96 well plates and exposed to the test compound for 48 hours. Compounds are tested at a single concentration, which is 10^-5 M for most compounds. The reported endpoint is percent growth (GI% or GIPRCNT), where numbers from 0 - 100% represent growth inhibition, and numbers from -100% - 0 represent cell death. […]
About 83,000 compounds went through this panel and 20% of them were active in at least one assay; those are over-represented in the sample as a whole. Calls of active or inactive are those of the source. How the source made its calls: active means growth percent below 10; inactive means the rest.

molecule | measurement kind | readout value
O=C(/C=C/C(Cl)(Cl)Cl)Nc1ccc(Cl)cc1 | growth | 115% (inactive)
O=C(O)c1ccc2c(c1)C(=O)c1ccccc1C2=O | growth | 105% (inactive)
O=C(/C=C/c1ccccc1)c1ccccc1O | growth | 93.2% (inactive)
O=C(O)c1cccc2cccc(-c3c4ccc(=O)c(O)c-4oc4c(O)c(O)ccc34)c12 | growth | 100% (inactive)
C[C@@]1(CO)[C@H](O)CC[C@@]2(C)[C@H]1CC[C@H]1C[C@@H]3C[C@@]12CC[C@@]3(O)COC(=O)CN | growth | 12% (inactive)

**Query** Query (molecule): CCN(CC)CCNC(Cc1ccccc1)c1ccc(OCc2ccccc2)cc1 (configuration not stated) ; field requested: growth
**Result** 65.1% (inactive)

**Query** Given the entry Nc1nc2ncc(CNc3ccc(C(=O)NC(CCC(=O)NC(CCC(=O)NC(CCC(=O)NC(CCC(=O)NC(CCC(=O)O)C(=O)O)C(=O)O)C(=O)O)C(=O)O)C(=O)O)cc3)nc2c(=O)[nH]1 (configuration not stated) , report its measured growth.
**Result** 120% (inactive)

**Query** Using the record for CN1CCC(c2ccccc2)(c2ccccc2)C(=O)C1 , report its growth.
**Result** 98% (inactive)

**Query** I would be grateful if you could share the reported growth for CC1CC(C)(C)OB(OC(C)CC(C)(C)OB2OC(C)CC(C)(C)O2)O1 (configuration not stated) .
**Result** 111% (inactive)

**Query** Query: growth; subject: COc1cc(/C=C/C(=O)CC(=O)/C=C/c2ccc(O)c(OC)c2)ccc1O
**Result** 47.4% (inactive)

###

# System: SK-MEL-28 melanoma
# assay notes: NCI-60 one-dose screen, 48 h
# conditions: 10 µM unless noted
The panel holds about 83,000 compounds, 20% with a hit somewhere; the sample as a whole holds those more often. Active and inactive are the calls of the source. The calls were made as follows: active = growth percent below 10; inactive = the rest.
Bench note: report the call from TRUE for active, FALSE for inactive

A selection of reference data follows.
compound | cat
CCCN(CCC)C(=O)c1ccc(C)cc1 | FALSE
CCCOS(=O)(=O)c1ccccc1 | FALSE

**Query** For CCOC(=O)C1(C)CCCC1N (configuration not stated) , what call appears in the results of this test?
**Result** FALSE

**Query** Hey, what did the test say about CCCCCCCCCCCC1=NCCCN1CCCC ?
**Result** FALSE

###

# System: NCI/ADR-RES ovarian
# assay notes: NCI-60 one-dose screen, 48 h
# conditions: 10 µM unless noted
About 83,000 compounds went through this panel and 20% of them were active in at least one assay; those are over-represented in the sample as a whole. The source made the active and inactive calls. Rule for the calls: active = growth percent below 10; inactive = the rest.
Valid outcomes are listed here; reply with one: t (active), f (inactive)

# count of solved cases: 2
compound | cat
CCOc1ccc(Nc2nc3c(s2)C(=O)c2ccccc2C3=O)cc1 | f
CCCC[n+]1c(/C=C\c2c(OC)cc(OC)cc2OC)ccc2ccccc21 | f

**Query** Kindly provide the recorded test outcome for the following compound: S=C(S)OCN1CCOCC1
**Result** f

**Query** Assay outcome for CCC1CCCCN1C(=S)N/N=C(\C)c1ccccn1 (stereo not drawn) : what was it?
**Result** t

**Query** Identify the outcome logged in this assay for the compound shown: O=[N+]([O-])c1ccc2c(c1)Cc1ccccc1-2
**Result** f

**Query** Query: recorded result category for COc1ccc2c(c1)c(CC(=O)O)c(C)n2C(=O)c1ccc(Cl)cc1 in this test
**Result** f

**Query** Called result for CCCCC(C=O)(C=C=C(C)C)CC (stereo not drawn)
**Result** f

###

# Test system: A549/ATCC NSCLC
# assay notes: NCI-60 one-dose screen, 48 h
# conditions: 10 µM unless noted
The panel holds about 83,000 compounds, 20% with a hit somewhere; the sample as a whole holds those more often. The source made the active and inactive calls. How the source made its calls: active means growth percent below 10; inactive means the rest.
Returns: one label drawn from Yes = active, No = inactive

Observe how each entry below is paired with its result.
compound | cat
[Cl-].[Rh+3].c1ccc(-c2ccnc3c2ccc2c(-c4ccccc4)ccnc23)cc1.c1ccc(-c2ccnc3c2ccc2c(-c4ccccc4)ccnc23)cc1.c1ccc(-c2ccnc3c2ccc2c(-c4ccccc4)ccnc23)cc1 | Yes
Cc1c(O)ccc(SC#N)c1C | No
C/C(=N/NC(N)=S)c1ccc(C)cc1 | No

**Query** Could you kindly confirm the outcome this assay logged for S=C1SCN(Cc2cccs2)CN1Cc1cccs1 ?
**Result** No

**Query** Field: outcome | Entry: N#C/C(=N\Nc1ccc(Cl)cc1)C(=O)C1CC1
**Result** No

**Query** Lab log entry: C1=C(c2ccccc2)c2ccccc2C1 — outcome as called in the assay?
**Result** No

**Query** Field: outcome | Entry: CN(C)CCSC1=Nc2ccc(Cl)cc2C(c2ccccc2Cl)N(C)C1 (configuration not stated)
**Result** No

**Query** Hi team, can someone confirm the assay call for O=Nc1ccc2ccccc2c1O ?
**Result** No

**Query** What is the recorded call for this compound in the test? CCOc1ccc(C(CN2CCOCC2)C(C)=O)cc1OC (configuration not stated)
**Result** No
